# System: CAF#4 (primary prostate cancer-associated fibroblasts of iCAF-like type)
# assay.remarks: drug sensitivity score (DSS2, normalised partial AUC of dose-response, 72 h CellTiter-Glo viability) (DSS (dimensionless)); higher = more sensitive (stronger growth inhibition / cytotoxicity); extreme values may be limits of the assay

compound: CCN(CC)CCN(Cc1ccc(-c2ccc(C(F)(F)F)cc2)cc1)C(=O)Cn1c(SCc2ccc(F)cc2)nc(=O)c2c1CCC2 [Darapladib] (tested concentration range 0.1-1000 nM)
assay.system: CAF#4
drug sensitivity score: 1
//
compound: CC(O)c1cc(C(=O)N[C@@H](C)Cn2ccc(-c3ccc(C#N)c(Cl)c3)n2)n[nH]1 (stereo partly specified) [Darolutamide] (tested concentration range 0.2-2500 nM)
assay.system: CAF#4
drug sensitivity score: 4.4
//
compound: COCC1(CO)C(=O)C2CCN1CC2 (stereo unspecified) [Eprenetapopt] (tested concentration range 1-10000 nM)
assay.system: CAF#4
drug sensitivity score: 0
//
compound: CCC(C)n1ncn(-c2ccc(N3CCN(c4ccc(OCC5COC(Cn6cncn6)(c6ccc(Cl)cc6Cl)O5)cc4)CC3)cc2)c1=O (stereo unspecified) [Itraconazole] (tested concentration range 0.5-5000 nM)
assay.system: CAF#4
drug sensitivity score: 0.2
//
compound: CNc1nc(Nc2cn(C(C)(C)C#N)nc2C)ncc1C(F)(F)F [GNE-0877] (tested concentration range 0.1-1000 nM)
assay.system: CAF#4
drug sensitivity score: 0
//
compound: Cc1nc(Nc2ncc(C(=O)Nc3c(C)cccc3Cl)s2)cc(N2CCN(CCO)CC2)n1 [Dasatinib] (tested concentration range 0.1-1000 nM)
assay.system: CAF#4
drug sensitivity score: 10.3
